Below: molecules with IC50 recorded for Dual specificity protein kinase CLK1 (Homo sapiens, UniProt P49759) in separate published works.

Known results for molecules:
CC[C@@H](C)Nc1nc(Nc2ccc(S(C)(=O)=O)cc2OC)nc2[nH]cc(C#N)c12 ... 301 to 1000 nM
COCCNc1cc(Nc2ccc(C(=O)N3CCOCC3)c3c2OCC3)nc2[nH]cc(C(F)(F)F)c12 ... < 100 nM
N#Cc1c[nH]c2nc(Nc3ccc(C(=O)N4CCN(C5COC5)CC4)c4c3OCCO4)nc(N[C@H]3CCOC3)c12 ... < 100 nM
CCNc1cc(Nc2ccc(S(C)(=O)=O)cc2OC)nc2[nH]cc(C#N)c12 ... 301 to 1000 nM

Hi! Can you tell me IC50 for each of these molecules?
1. CCCCNc1cc(Nc2ccc(C(=O)N3CCC(N4CCOCC4)CC3)c3c2OCCO3)nc2[nH]cc(C(F)(F)F)c12
2. CCc1noc2c1/C=C/c1n[nH]c3ccc(cc13)-c1cnn(C)c1O[C@@H](C)CN(C)C2
3. COCCNc1nc(Nc2ccc(P3(=O)CCN(C4CCOCC4)CC3)cc2OC)nc2[nH]cc(C(F)(F)F)c12
4. CCCNc1nc(Nc2ccc(P(C)(C)=O)cc2OC)nc2[nH]cc(C(F)(F)F)c12
5. COc1cc(P2(=O)CCN(C3COC3)CC2)ccc1Nc1cc(C2CC2)c2c(C(F)(F)F)c[nH]c2n1
6. O=C(c1ccc(Nc2nc(NCC3CC3)c3c(C(F)(F)F)c[nH]c3n2)c2c1CCO2)N1CCC(N2CCOCC2)CC1
7. COCCNc1cc(Nc2ccc(P3(=O)CCN(C4CC4)CC3)cc2OC)nc2[nH]cc(C#N)c12
8. COCCNc1nc(Nc2ccc(S(C)(=O)=O)cc2OC)nc2[nH]cc(C(N)=O)c12

1. < 100 nM
2. 0.16 nM
3. < 100 nM
4. < 100 nM
5. < 100 nM
6. < 100 nM
7. 301 to 1000 nM
8. 301 to 1000 nM

Hi! Can you tell me IC50 for each of these molecules?
1. COCCNc1nc(Nc2ccc(P3(=O)CCN(C4CC4)CC3)cc2OC)nc2[nH]cc(C(F)(F)F)c12
2. COc1cc(S(=O)(=O)N2CCOCC2)ccc1Nc1nc(C2CC2)c2c(C#N)c[nH]c2n1
3. COc1cc(P(C)(C)=O)ccc1Nc1nc(NCC2CC2)c2c(C(F)(F)F)c[nH]c2n1

1. < 100 nM
2. 301 to 1000 nM
3. < 100 nM
